Data provenance: patent US20210171503A1

Molecular target: mouse glycolate oxidase (mGO) (Mus musculus)
Construct: His6 (N); made in house; host or cells: E. coli BL21 (DE3)
Sequence (Q9WU19 1-370): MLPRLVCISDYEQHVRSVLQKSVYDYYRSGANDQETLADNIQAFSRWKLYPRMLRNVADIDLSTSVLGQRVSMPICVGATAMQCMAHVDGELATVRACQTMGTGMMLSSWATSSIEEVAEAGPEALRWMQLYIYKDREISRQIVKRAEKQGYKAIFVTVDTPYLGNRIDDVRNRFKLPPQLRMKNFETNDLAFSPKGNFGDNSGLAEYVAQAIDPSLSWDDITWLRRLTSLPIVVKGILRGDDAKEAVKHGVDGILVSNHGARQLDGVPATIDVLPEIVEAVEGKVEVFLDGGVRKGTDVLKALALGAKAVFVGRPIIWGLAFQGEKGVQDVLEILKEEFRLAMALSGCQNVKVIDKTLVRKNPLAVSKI
Test: In vitro inhibition of mouse glycolate oxidase (mGO), HRP-coupled Trinder reaction
Type: biochemical
Conditions: compound tested at 100 μM; 40 mM glycolic acid as substrate; activity calculated at 1 minute

| smiles-text | inhibition at 100 µM |
| --- | --- |
| COc1ccc(CN(c2ccc(CCc3ccc(F)cc3)cc2)c2c(C(=O)O)n[nH]c2C)cc1 | > 60% |
| CC(C)(C)OC(=O)N1CCC(CCOc2ccc(Cc3ccc(Nc4ccnnc4C(=O)O)cc3)cc2)CC1 | > 60% |
| Cc1onc(C(=O)O)c1N(Cc1ccc(Oc2ccc(C#N)cc2)cc1)Cc1ccc(Oc2ccc(C#N)cc2)cc1 | > 60% |
| Cc1[nH]nc(C(=O)O)c1Nc1ccc(C#N)cc1 | 30 to 60% |
| O=C(O)c1nnccc1SCc1ccccc1 | < 30% |

* * *

Target: mouse glycolate oxidase (mGO) (Mus musculus)
Construct: His6 (N); made in house; host or cells: E. coli BL21 (DE3)
Experiment: In vitro inhibition of mouse glycolate oxidase (mGO), HRP-coupled Trinder reaction
Format: biochemical
Conditions: compound tested at 100 μM; 40 mM glycolic acid as substrate; activity calculated at 1 minute
Some compounds, each annotated with its measured inhibition at 100 µM.
quantity-measured: inhibition at 100 µM

| compound | measured-result |
| --- | --- |
| O=C(O)c1nnsc1Nc1cccc(Br)c1 | > 60% |
| Cc1snc(C(=O)O)c1Cc1ccc(F)cc1 | < 30% |
| Cc1snc(C(=O)O)c1Nc1cccc(Br)c1 | 30 to 60% |
| Cc1[nH]nc(C(=O)O)c1Cc1ccc(Br)cc1 | < 30% |
| O=C(O)c1nnsc1Nc1cccc(-c2ccccn2)c1 | > 60% |
| CCCCCC(Sc1c(C(=O)O)noc1C)c1ccc(F)cc1 (stereo not shown) | 30 to 60% |
| CCCC/C=C(/SC1=C(C(=O)O)NNC=C1)c1ccc(F)cc1 | < 30% |
| Cc1[nH]nc(C(=O)O)c1Cc1ccc(F)cc1 | < 30% |
| CCCCCC(Sc1ccnnc1C(=O)O)c1ccc(F)cc1 (stereo not shown) | 30 to 60% |
| Cc1onc(C(=O)O)c1NCc1ccc(F)cc1 | 30 to 60% |
